assayExplanation: AUC (infinity) in CD-1 mouse at 10 mg/kg, iv
Assay type: ADME, organism-based
Design: route intravenous, time infinity, dose 10 mg/kg
setupConditions: in vivo
# AUC(0-inf) values compiled below
measurementType: AUC(0-inf)

chemicalstructure=NS(=O)(=O)N1CC[C@@H](CNc2nonc2/C(=N/O)Nc2ccc(F)c(Br)c2)C1 measured="1860 ng·h/mL"
chemicalstructure=NS(=O)(=O)N1CCC[C@@H](CNc2nonc2/C(=N/O)Nc2ccc(F)c(Br)c2)C1 measured="888 ng·h/mL"
chemicalstructure=NS(=O)(=O)N1CCC[C@H](CNc2nonc2/C(=N/O)Nc2ccc(F)c(Br)c2)C1 measured="1260 ng·h/mL"
chemicalstructure=NS(=O)(=O)NCCNc1nonc1C(=NO)Nc1ccc(F)c(Br)c1 measured="1650 ng·h/mL"

----------
assayExplanation: Half life in CD-1 mouse at 20 mg/kg, po
Assay type: ADME, organism-based
setupConditions: in vivo
# half-life values compiled below
measurementType: half-life (h)

chemicalstructure=NS(=O)(=O)N1CCC[C@@H](CNc2nonc2/C(=N/O)Nc2ccc(F)c(Br)c2)C1 measured=3.81
chemicalstructure=NS(=O)(=O)N1CCC[C@H](CNc2nonc2/C(=N/O)Nc2ccc(F)c(Br)c2)C1 measured=3.17
chemicalstructure=NS(=O)(=O)NCCNc1nonc1C(=NO)Nc1ccc(F)c(Br)c1 measured=2.59
chemicalstructure=NS(=O)(=O)N1CC[C@@H](CNc2nonc2/C(=N/O)Nc2ccc(F)c(Br)c2)C1 measured=2.81

----------
# Cmax values compiled below
assayExplanation: Cmax in CD-1 mouse at 20 mg/kg, po
Format: ADME, organism-based
Set-up: route oral, dose 20 mg/kg
setupConditions: in vivo
measurementType: Cmax (ng/mL)

chemicalstructure=NS(=O)(=O)N1CC[C@@H](CNc2nonc2/C(=N/O)Nc2ccc(F)c(Br)c2)C1 measured=622
chemicalstructure=NS(=O)(=O)NCCNc1nonc1C(=NO)Nc1ccc(F)c(Br)c1 measured=343
chemicalstructure=NS(=O)(=O)N1CCC[C@@H](CNc2nonc2/C(=N/O)Nc2ccc(F)c(Br)c2)C1 measured=261
chemicalstructure=NS(=O)(=O)N1CCC[C@H](CNc2nonc2/C(=N/O)Nc2ccc(F)c(Br)c2)C1 measured=118

----------
# AUC(0-inf) values compiled below
assayExplanation: AUC (infinity) in CD-1 mouse at 20 mg/kg, po
Type: ADME, organism-based
Set-up: route oral, time infinity, dose 20 mg/kg
setupConditions: in vivo
measurementType: AUC(0-inf) (ng·h/mL)

compound=NS(=O)(=O)N1CCC[C@H](CNc2nonc2/C(=N/O)Nc2ccc(F)c(Br)c2)C1 readoutunits=ng·h/mL measured=304
compound="NS(=O)(=O)NCCNc1nonc1C(=NO)Nc1ccc(F)c(Br)c1 [EPACADOSTAT]" readoutunits=ng·h/mL measured=971
compound=NS(=O)(=O)N1CC[C@@H](CNc2nonc2/C(=N/O)Nc2ccc(F)c(Br)c2)C1 readoutunits=ng·h/mL measured=392
compound=NS(=O)(=O)N1CCC[C@@H](CNc2nonc2/C(=N/O)Nc2ccc(F)c(Br)c2)C1 readoutunits=ng·h/mL measured=764

----------
assayExplanation: Tmax in CD-1 mouse at 20 mg/kg, po
Format: ADME, organism-based
setupConditions: in vivo
measurementType: Tmax

chemicalstructure=NS(=O)(=O)NCCNc1nonc1C(=NO)Nc1ccc(F)c(Br)c1 measurementtype=Tmax measured="70.2 min"
chemicalstructure=NS(=O)(=O)N1CC[C@@H](CNc2nonc2/C(=N/O)Nc2ccc(F)c(Br)c2)C1 measurementtype=Tmax measured="15 min"
chemicalstructure=NS(=O)(=O)N1CCC[C@H](CNc2nonc2/C(=N/O)Nc2ccc(F)c(Br)c2)C1 measurementtype=Tmax measured="20 min"
chemicalstructure=NS(=O)(=O)N1CCC[C@@H](CNc2nonc2/C(=N/O)Nc2ccc(F)c(Br)c2)C1 measurementtype=Tmax measured="19.8 min"

All values here come from ChEMBL document CHEMBL4680179.
